System: cucumber downy mildew
PROTOCOL_NOTES: fungicidal activity in vivo, cucumber downy mildew on cucumber seedling leaves
CONDITIONS_USED: 400 mg/L, spray, investigated after 5 days
Please use t for cucumber downy mildew control % under 70% and f for everything else, ties included.

Look over these answered cases.
compound=CCCCc1c(C)nc(Nc2ccccc2)nc1OC(=O)OCc1ccccc1 assigned_label=t
compound=CC(C)OC(=O)Oc1nc(Nc2ccc(F)c(F)c2F)nc2c1CCCC2 assigned_label=f
compound=CCCCc1c(C)nc(Nc2ccccc2)nc1OC(=O)OC(C)C assigned_label=f

stdin: Problem: For the compound Cc1cc(OC(=O)OC(C)C)nc(Nc2ccccc2)n1 , is cucumber downy mildew control % under 70%?
stdout: t

stdin: CC(C)OC(=O)Oc1nc(Nc2ccccc2)nc2c1CCC2 , same question.
stdout: t

stdin: Cc1nc(Nc2ccccc2)nc(OC(=O)OC(C)C)c1C , same question.
stdout: t

stdin: CCCCc1c(C)nc(Nc2ccccc2)nc1OC(=O)OCC , same question.
stdout: f

stdin: CC(C)OC(=O)Oc1nc(Nc2ccccc2)nc2c1CCCC2 , same question.
stdout: t

====

System: rice blast
PROTOCOL_NOTES: microbe, parasite or virus in culture
Type: cell-based
CONDITIONS_USED: Pyricularia oryzae, read-out: rice blast inhibition rate %
Record form. Attribute: inhibition at 25 µg/mL. Fill in for each entry.
One number for each entry, in %.

# example entries with known answers
molecule="COC(=O)Oc1cc(C2CC2)nc(Nc2ccccc2)n1 [Compound K2, reference compound]" recorded_endpoint="inhibition at 25 µg/mL" unit_of_measurement=% reported=80
molecule="CC(C)OC(=O)Oc1nc(Nc2ccccc2)nc2c1CCC2 [Compound 393]" recorded_endpoint="inhibition at 25 µg/mL" unit_of_measurement=% reported=100
molecule="CCCCc1c(C)nc(Nc2ccccc2)nc1OC(=O)OCc1ccccc1 [Compound 156]" recorded_endpoint="inhibition at 25 µg/mL" unit_of_measurement=% reported=80
molecule="CC(C)OC(=O)Oc1nc(Nc2ccc(F)c(F)c2F)nc2c1CCCC2 [Compound 443]" recorded_endpoint="inhibition at 25 µg/mL" unit_of_measurement=% reported=100

stdin: Which inhibition at 25 µg/mL reading was recorded for the molecule CCCCc1c(C)nc(N(C)C)nc1OC(=O)OCC [Compound K1, reference compound] ?
stdout: 100

====

Tested on: wheat powdery mildew
PROTOCOL_NOTES: fungicidal activity in vivo, wheat powdery mildew on wheat seedling leaves
CONDITIONS_USED: 100 mg/L, spray, investigated after 7 days
RECORDED_ENDPOINT: wheat powdery mildew control % (%)
One number for each entry, in %.

# example entries with known answers
molecule=CCCCc1c(C)nc(Nc2ccccc2)nc1OC(=O)OC(C)C unit_of_measurement=% reported=100
molecule=CCCCc1c(C)nc(Nc2ccccc2)nc1OC(=O)OCC unit_of_measurement=% reported=98
molecule=CCCCc1c(C)nc(Nc2ccccc2)nc1OC(=O)OC unit_of_measurement=% reported=100
molecule="CCCCc1c(C)nc(N(C)C)nc1OC(=O)OCC [Compound K1, reference compound]" unit_of_measurement=% reported=0
molecule=CCCCc1c(C)nc(Nc2ccccc2)nc1OC(=O)OCc1ccccc1 unit_of_measurement=% reported=80
molecule="CCCCc1c(C)nc(Nc2ccccc2)nc1OC(=O)OC(C)c1ccccc1 (stereo not shown)" unit_of_measurement=% reported=80

stdin: Which wheat powdery mildew control % reading was recorded for the molecule CCCCOC(=O)Oc1nc(Nc2ccccc2)nc(C)c1CCCC ?
stdout: 95
